- assay-info: HPLC lipophilicity on IAM (immobilized artificial membrane, phosphatidylcholine) stationary phase
- Type: physicochemical
- measurement-context: Table S2; ACN 0.30 v/v in mobile phase, pH 7.4
Log k IAM vs -0.03: at or above is Y, below is N.

Worked cases, answers included:
molecule	class
O=C(COc1ccccc1)NNC(=S)Nc1ccc(Cl)cc1 [Compound 10]	N
O=C(COc1ccccc1)NNC(=S)Nc1cccc(Br)c1 [Compound 7]	N
O=C(COc1ccccc1)NNC(=S)Nc1ccccc1 [Compound 1]	N
O=C(COc1ccccc1)NNC(=S)Nc1ccc(I)cc1 [Compound 12]	Y
O=C(COc1ccccc1)NNC(=S)Nc1cccc(I)c1 [Compound 8]	Y
O=C(COc1ccccc1)NNC(=S)Nc1ccccc1F [Compound 2]	N
O=C(COc1ccccc1)NNC(=S)Nc1cccc(F)c1 [Compound 5]	N
O=C(COc1ccccc1)NNC(=S)Nc1ccccc1Cl [Compound 3]	N
O=C(COc1ccccc1)NNC(=S)Nc1ccccc1I [Compound 4]	Y
O=C(COc1ccccc1)NNC(=S)Nc1cccc(Cl)c1 [Compound 6]	N

*Q* Answer whether Log k IAM of O=C(COc1ccccc1)NNC(=S)Nc1ccc(F)cc1 [Compound 9] is greater than or equal to -0.03.
*A* N

*Q* Is Log k IAM for O=C(COc1ccccc1)NNC(=S)Nc1cc(Cl)ccc1Cl [Compound 14] at or above -0.03?
*A* Y

*Q* Reported Log k IAM at or above -0.03? CSc1ccc(NC(=S)NNC(=O)COc2ccccc2)cc1 [Compound 17]
*A* N

*Q* Check the entry O=C(COc1ccccc1)NNC(=S)Nc1ccc(Cl)c(Cl)c1 [Compound 15] : does Log k IAM equal or exceed -0.03?
*A* Y

====

- Test system: α1-acid glycoprotein (AGP)
- assay-info: HPLC on immobilized AGP column, affinity and % plasma–protein binding
- Format: in vitro ADME, human
- measurement-context: human, pH 7.4; % plasma–protein binding converted from log K AGP (Equation 10); read-out: %PPB AGP (converted)
assay-endpoint: fraction unbound

O=C(COc1ccccc1)NNC(=S)Nc1ccccc1 0.277
O=C(COc1ccccc1)NNC(=S)Nc1ccc(Br)cc1 0.18
O=C(COc1ccccc1)NNC(=S)Nc1ccccc1F 0.278
O=C(COc1ccccc1)NNC(=S)Nc1ccc(Cl)cc1Cl 0.197
O=C(COc1ccccc1)NNC(=S)Nc1ccccc1I 0.168
O=C(COc1ccccc1)NNC(=S)Nc1ccccc1Cl 0.211
O=C(COc1ccccc1)NNC(=S)Nc1ccc(I)cc1 0.118
O=C(COc1ccccc1)NNC(=S)Nc1ccc([N+](=O)[O-])cc1 0.302
O=C(COc1ccccc1)NNC(=S)Nc1ccc(F)cc1 0.283
O=C(COc1ccccc1)NNC(=S)Nc1cc(Cl)ccc1Cl 0.107

API: the following record is the query input.
*Q* Would you kindly share the measured fraction unbound for `O=C(COc1ccccc1)NNC(=S)Nc1ccc(Cl)c(Cl)c1` ?
*A* 0.099

====

- assay-info: HPLC lipophilicity on cholesterol (Chol) stationary phase
- Type: physicochemical
- measurement-context: Table S3; MeOH 0.60 v/v in mobile phase, pH 7.4
assay-endpoint: Log k Chol
No unit in the answer, please; the number alone is enough.

Worked examples follow.
molecule	Log k Chol
O=C(COc1ccccc1)NNC(=S)Nc1ccc(Cl)c(Cl)c1 [Compound 15]	0.792
O=C(COc1ccccc1)NNC(=S)Nc1ccccc1Cl [Compound 3]	-0.068
O=C(COc1ccccc1)NNC(=S)Nc1ccccc1 [Compound 1]	-0.157
O=C(COc1ccccc1)NNC(=S)Nc1cccc(Cl)c1 [Compound 6]	0.160
O=C(COc1ccccc1)NNC(=S)Nc1cccc(F)c1 [Compound 5]	-0.057
O=C(COc1ccccc1)NNC(=S)Nc1cc(Cl)ccc1Cl [Compound 14]	0.574
O=C(COc1ccccc1)NNC(=S)Nc1ccc(Cl)cc1Cl [Compound 13]	0.400
O=C(COc1ccccc1)NNC(=S)Nc1cccc(Br)c1 [Compound 7]	0.347

*Q* Fill blank: measured Log k Chol of the molecule CSc1ccc(NC(=S)NNC(=O)COc2ccccc2)cc1 [Compound 17] is ____.
*A* 0.379

*Q* Look at this molecule and give its reported Log k Chol. O=C(COc1ccccc1)NNC(=S)Nc1ccc(I)cc1 [Compound 12]
*A* 0.404

// data source = paper PMC10608985
